# protocol.details: basal 3T3-L1 adipocyte mitochondrial potential changes, profiling panel, cell-based, JC-1 fluorescence, 3T3-L1 adipocytes, 24 h, 100 nL compound (AID 1168); also: test concentration not given here
# experimental.parameters: JC-1 mitochondrial fluorescence, higher = more signal, called active from +8 up or from −8 down
readout.label: z-score
Hey, just send me the number, nothing else.

Sample records with z-score:
> print(dat)
                                   molecule  result
1  [N-]=[N+]=NCc1ccccc1C[C@@]1(C(=O)N2CCCCC2)N=C(c2ccc(OCCCO)cc2)O[C@@H]1c1ccccc1N=[N+]=[N-]   0.636
2  CCOc1cc(C(O)C2C=CC3C(=O)N(C4CCCCC4)C(=O)C3N2Nc2ccc(OC)cc2)ccc1O (configuration not stated)   0.283
3  COc1ccc(C(O)C2C=CC3C(=O)N(c4ccccc4)C(=O)C3N2Nc2ccccc2)cc1OCc1ccccc1 (configuration not stated)  -0.514
4  COc1ccc([Si](C)(C)[C@H]2[C@H](CCO)O[C@@]3(C(=O)N(Cc4cccc(N5CCCCC5=O)c4)c4ccccc43)[C@@H]2C)cc1  0.0395
5  O=C1C2C=CC(C(O)c3cc(C(F)(F)F)cc(C(F)(F)F)c3)N(Nc3ccc([N+](=O)[O-])cc3)C2C(=O)N1c1ccccc1 (configuration not stated)  -0.699

Qu. What z-score value was documented for this molecule, CN(C)CCCN1C(=O)[C@@]2(c3ccc([N+](=O)[O-])cc3)CC(=O)N(CC34CC5CC(CC(C5)C3)C4)[C@@H]2c2ccc(CO)cc21 ?
Ans. 1.38

Qu. What z-score value was documented for this molecule, CC(C)(C)OC(=O)CC[C@]1(C(=O)NCCN2CCOCC2)N=C(c2ccc(OCCCO)cc2)O[C@H]1c1ccccc1N=[N+]=[N-] ?
Ans. 1.21

* * *

# protocol.details: small-molecule microarray binders of probe aNog, primary screen, biochemical, biotinylated probe, 635/667 nm fluorescence (AID 1115);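 also: probe is biotinylated aNog protein used at 0.15 µg/mL for 1 h at 4 C; z-score combines 667 nm fluorescence of each spot with its signal to noise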
# experimental.parameters: higher = more signal
composite z-score vs -0.2: at or above is true, below is false.

Solved cases below.
molecule	assigned.category
CO[C@H]1O[C@H](CO)[C@@H](OC(=O)c2ccc(Br)cc2)[C@@H]2OC(=O)[C@@H](Cc3ccc4ccccc4c3)C/C=C/C[C@H](Cc3ccc4ccccc4c3)C(=O)O[C@@H]12	false
COC(=O)[C@@]1(Cc2ccccc2)[C@H]2c3cc(C(=O)N4CCCC4)n(Cc4cc(F)cc5c4OCOC5)c3C[C@H]2CN1C(=O)c1ccccc1	true
C=CCC(OC(C)=O)[C@@H]1[C@@H](N(Cc2cc3ccccc3o2)C(=O)c2ccc(C)cc2)c2cc(OCCCO)ccc2N1C(=O)Cc1ccc2ccccc2c1 (stereo partly drawn)	false
COc1ccc([Si](C)(C)[C@H]2[C@H](CCn3cc([C@H](O)c4ccccc4)nn3)O[C@@]3(C(=O)N(Cc4ccc(N5CCOC5=O)cc4)c4ccccc43)[C@@H]2C)cc1	true
CC(C)N1CC=CC23O[C@@H]4C=CCOC(=O)[C@@H]4[C@H]2C(=O)N(C(C)CO)[C@@H]3C1=O (stereo partly drawn)	true

Qu. Entry COCCOC(=O)N1C(=O)[C@@]2(c3cc(C#CC4=CCCCC4)ccc31)[C@H](C(=O)N1CCN(c3ncccn3)CC1)[C@H]1C(=O)O[C@H](c3ccccc3)[C@H](c3ccccc3)N1[C@@H]2c1ccc(O)cc1 : is its composite z-score no less than -0.2?
Ans. true

Qu. Entry COCCOC(=O)N1C(=O)[C@@]2(c3cc(C#CC4(O)CCCCCC4)ccc31)[C@H](C(N)=O)[C@H]1C(=O)O[C@H](c3ccccc3)[C@H](c3ccccc3)N1[C@@H]2c1ccccc1OCCO : is its composite z-score no less than -0.2?
Ans. false

Qu. Entry COc1ccc(C(O)C2C=CC3C(=O)N(c4ccccc4)C(=O)C3N2Nc2ccc(C#N)cc2)c2ccccc12 (stereo not drawn) : is its composite z-score no less than -0.2?
Ans. true

* * *

# study.system: Calmodulin-1 (Homo sapiens) (UniProt P0DP23)
# protocol.details: CALM1 binders on microarrays, EGTA buffer, profiling panel, biochemical, small-molecule microarray, Cy5-labelled CALM1 (AID 1111);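 also: labelled calmodulin applied in Tris saline Tween buffer holding calcium plus EGTA and DTT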
# experimental.parameters: Cy5-CALM1 binding fluorescence, higher = more signal
composite z-score vs 0.4: at or above is y, below is n.

Qu. Entry CCOC(=O)C[C@H]1[C@H](OC(=O)c2ccc(-c3ccccc3)cc2)[C@@H](NC(=O)C2CCCCC2)c2cc(OCCCO)ccc2N1C(=O)c1ccccc1 : is its composite z-score no less than 0.4?
Ans. y

Qu. Entry COC(=O)[C@@]1(Cc2ccc(OC)cc2)[C@H]2c3cc(C(=O)N(C)C)n(CCc4c[nH]c5ccc(O)cc45)c3C[C@H]2CN1C(=O)c1ccccc1 : is its composite z-score no less than 0.4?
Ans. y

Qu. Entry NC(=O)N1C(=O)C2C(C1=O)C1C=C(c3ccc(CO)cc3)C2C(C2CC2)N1Cc1sc2ccccc2c1Cl (stereo unspecified) : is its composite z-score no less than 0.4?
Ans. y

Qu. Entry COCCOC(=O)N1C(=O)[C@@]2(c3cc(C#Cc4ccc(OC)cc4)ccc31)[C@H](C(=O)NC[C@H](O)c1ccccc1)[C@H]1C(=O)O[C@H](c3ccccc3)[C@H](c3ccccc3)N1[C@@H]2c1ccc(O)cc1 : is its composite z-score no less than 0.4?
Ans. n

Qu. Entry COC(=O)c1c(CC[C@@H](CO)NC(=O)N[C@H](Cn2cc(-c3ccccc3C)nn2)C(C)C)oc(C(C)=O)c1C(=O)OC : is its composite z-score no less than 0.4?
Ans. n

Qu. Entry CC(C)(C)OC(=O)CC[C@@]1(C(=O)O)N=C(c2ccc(OCCCO)cc2)O[C@@H]1c1ccccc1CN=[N+]=[N-] : is its composite z-score no less than 0.4?
Ans. y

* * *

# Tested on: Human papillomavirus type 1a E7 protein (residues 1-88)
# protocol.details: HPV1a E7 small-molecule binders, primary screen, biochemical, small-molecule microarray, residues 1-88, 635 nm (AID 1129)
# experimental.parameters: small-molecule microarray binding, fluorescence 635 nm; higher = more signal
composite z-score vs 1: at or above is y, below is n.

molecule	assigned.category
CN(C)CCCNC(=O)[C@@]1(C)c2ccccc2C(=O)N(Cc2cc(C(F)(F)F)cc(C(F)(F)F)c2)[C@H]1c1ccc(CO)cc1	n
COc1ccc(C(O)C2C=CC3C(=O)N(c4ccccc4)C(=O)C3N2Nc2ccc(C#N)cc2)c2ccccc12 (stereo unspecified)	y
C=CCC(OC(C)=O)[C@@H]1[C@@H](N(Cc2cc3ccccc3o2)C(=O)Cc2ccc(F)cc2)c2cc(OCCCO)ccc2N1C(=O)c1ccc2ccccc2n1 (stereo partly specified)	n
[N-]=[N+]=Nc1ccccc1[C@H]1OC(c2ccc(OCCCO)cc2)=N[C@@]1(CCS(=O)(=O)c1ccccc1)C(=O)N1CCCCC1	y
COC(=O)C(CC#Cc1ccc2c(c1)[C@]1(C(=O)N2)[C@H](C(=O)O)[C@H]2C(=O)O[C@H](c3ccccc3)[C@H](c3ccccc3)N2[C@@H]1c1ccccc1OCCO)C(=O)OC	y

Field: next molecule
Qu. Entry COC(=O)[C@@]1(Cc2ccc(OC)cc2)[C@H]2c3cc(C(=O)N4CCCC4)n(CCc4cc5ccccc5[nH]4)c3C[C@H]2CN1C(=O)c1ccccc1 : is its composite z-score no less than 1?
Ans. y

* * *

# protocol.details: cell viability in Huh7 cells, primary screen, cytotoxicity control for HCV replication inhibitor project, CellTiter-Glo luminescence, basal, 48 h (AID 1143);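 also: Huh7 hepatoma cells carrying a hepatitis C replication reporter with no stimulus; test concentration not given here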
# experimental.parameters: Huh7 HCV replicon, higher = more signal, called active from +8 up or from −8 down
z-score vs -2: at or above is fulfilled, below is not fulfilled.

Solved cases below.
compound	assigned.category
COc1ccccc1CN1C(=O)c2ccccc2[C@@H](C(=O)NC(C)C)[C@@H]1c1ccc(CO)cc1	fulfilled
O=C1O[C@@H](c2ccccc2)[C@@H](c2ccccc2)N2[C@@H](c3ccc(O)cc3)[C@]3(C(=O)Nc4ccc(C#CC5=CCCCC5)cc43)[C@@H](C(=O)N3CCN(c4ncccn4)CC3)[C@H]12	not fulfilled
CC(C)(C)OC(=O)CC[C@]1(C(=O)NCCN2CCOCC2)N=C(c2ccc(OCCCO)cc2)O[C@H]1c1ccccc1N=[N+]=[N-]	fulfilled
COC(=O)[C@H](Cc1ccccc1)N1CC(/C=C/C2CC2)=C[C@@H]1[C@@H](O)Cc1ccccc1	fulfilled
C=CCC(OC(C)=O)[C@@H]1[C@@H](N(Cc2cc3ccccc3o2)C(=O)c2ccc(C)cc2)c2cc(OCCCO)ccc2N1C(=O)Cc1ccc2ccccc2c1 (stereo not given in full)	fulfilled
COCCOC(=O)N1C(=O)[C@@]2(c3ccccc31)[C@H](c1ccc(OCCO)cc1)N1[C@H](c3ccccc3)[C@H](c3ccccc3)OC(=O)[C@H]1[C@@H]2C(=O)Nc1nc2ccccc2s1	fulfilled

Qu. Entry CC(C)C(=C=CC[C@@H](O)c1ccccc1OCCO)C[C@@H](O)COCc1ccccc1 : is its z-score no less than -2?
Ans. not fulfilled

Qu. Entry COCCCNC(=O)[C@]1(Cc2ccccc2CN=[N+]=[N-])N=C(c2ccc(OCCCO)cc2)O[C@@H]1c1ccccc1 : is its z-score no less than -2?
Ans. not fulfilled
